# Tested on: Klebsiella pneumoniae
# reported.conditions: Concentration 32 ug.mL-1;; ASSAY_TEST Inhibition of Bacterial Growth; detection method Absorption (OD600); MEDIA CAMHB; plate type 384well; NBS; CORNING #3640; time 18 hr
# Description: Antibacterial activity against Klebsiella pneumoniae MDR ATCC 70063 (CO-ADD:GN_003); MIC in CAMBH media using NBS plates, by OD(600)
Entries with a potency or affinity are not part of this list.
measured.quantity: Inhibition (%)
One number for each entry, in %.

Example entries begin here.
1. Cc1ccc(CN(c2ccccc2)S(=O)(=O)c2ccc3nncn3c2)cc1; -1.94
2. COc1ccccc1-n1ccn2c(SCC(=O)Nc3ccc(C)cc3C)nnc2c1=O; 11.64

Hi there! I need Inhibition for each item below, if you can.
1. CCC(C)NC(=O)Cn1c(=O)c2nnc(C)n2c2ccccc21 (stereo not given)
2. COc1ccc(NC(=O)c2ccc3nn(CC(=O)Nc4cccc(SC)c4)c(=O)n3c2)cc1
3. CCc1cccc(NC(=O)Cn2nc3c(SC4CCCCC4)nccn3c2=O)c1
4. Cc1cccc(NC(=O)CSc2nnc3c4cc(-c5ccc(F)cc5)nn4ccn23)c1C
5. Cc1cc(C)c(NC(=O)Cn2nc3c(Sc4ccccc4)nccn3c2=O)c(C)c1
6. Cc1ccc(Oc2nccn3c(=O)n(CC(=O)Nc4cccc(Cl)c4)nc23)cc1
7. Cc1ccc(-c2cc3c4nn(CC(=O)Nc5ccccc5C)c(=O)n4ccn3n2)cc1C

Result:
11.59
-1.25
3.05
0.2
-3.36
2.02
7.72

Task: Can you share its Inhibition? I mean this compound: Cc1cccc(C)c1NC(=O)CSc1nnc2ccc(C(=O)Nc3cccc(F)c3)cn12
Result: 10.23

* * *

# System: Cryptococcus neoformans
# reported.conditions: Concentration 32 ug.mL-1; ASSAY_TEST Inhibition of Fungal Growth; detection method Resazurin; Absorption (OD600-OD570); plate type 384well; NBS; CORNING #3640
# Description: Antifungal activity against Cryptococcus neoformans H99 ATCC 208821 (CO-ADD:FG_002); MIC in YNB media using NBS plates, by Resazurin OD(600-570)
Measured potencies and affinities stand elsewhere.
measured.quantity: Inhibition (%)
Numbers only, in %.

Example entries begin here.
1. COc1cc(NC(=O)Cn2nc3ccc(C(=O)NCc4ccccc4)cn3c2=O)cc(OC)c1OC; -8.4
2. COc1ccc(-c2cc3c4nn(CC(=O)Nc5ccc(C)cc5)c(=O)n4ccn3n2)cc1; -26.93
3. Cc1cccc(NC(=O)Cn2nc3c4cc(-c5ccc(F)cc5)nn4ccn3c2=O)c1C; -22.65
4. Cc1ccc(Oc2nc3ccccc3n3c(=O)n(CC(=O)Nc4cccc(C(F)(F)F)c4)nc23)cc1; -21.42
5. COc1ccc2[nH]cc(C(=O)CSc3nnc4c(=O)n(-c5cccc(Cl)c5C)ccn34)c2c1; -9.58
6. COC(=O)c1ccc(NC(=O)Cn2nc3ccc(S(=O)(=O)c4ccccc4)nn3c2=O)cc1; -5.62
7. O=C(Cn1nc2ccc(-c3ccccc3)nn2c1=O)Nc1ccc(F)c(Cl)c1; -6.93
8. COc1cc(NC(=O)CSc2nnc3c(=O)n(-c4cccc(F)c4)ccn23)cc(OC)c1; -8.34

Shift focus to the following entry.
Task: # returns recorded Inhibition (system: Cryptococcus neoformans) for COc1ccc(NC(=O)c2ccc3nn(CC(=O)Nc4ccc(S(C)(=O)=O)cc4)c(=O)n3c2)cc1
Result: -4.16

* * *

# Test system: Cryptococcus neoformans
# reported.conditions: Concentration 32 ug.mL-1; ASSAY_TEST Inhibition of Fungal Growth; detection method Resazurin; Absorption (OD600-OD570); plate type 384well; NBS; CORNING #3640
Entries with a potency or affinity are not part of this list.
Kindly supply the reported Inhibition values for the records listed here.
Numbers only, in %.

Example entries begin here.
1) O=c1c2nn(Cc3c(F)cccc3Cl)c(=O)n2ccn1-c1ccccc1; -4.81
2) COc1cccc(CSc2nnc3c(=O)n(-c4ccccc4OC)ccn23)c1; -5.34
3) CC1CCCN(c2nccn3c(=O)n(CC(=O)Nc4ccc5c(c4)OCO5)nc23)C1 (stereo unspecified); -11.4
4) COc1ccc(N(Cc2cccc(Cl)c2)S(=O)(=O)c2ccc3nnc(C)n3c2)cc1; -5.62
5) Cc1ccc(Oc2nccn3c(=O)n(CC(=O)N4CCN(c5ccccc5F)CC4)nc23)cc1; -23.01

Hi there! I need Inhibition for each item below, if you can.
1. Cc1ccccc1N1CCN(c2nccn3c(=O)n(CC(=O)Nc4cccc(C(C)C)c4)nc23)CC1
2. Cc1ccccc1Oc1nccn2c(=O)n(CC(=O)Nc3cc(F)ccc3F)nc12

Result:
1: -7.69; 2: -8.18

Hi there! I need Inhibition for each item below, if you can.
1. CC(C)Cc1ccc(S(=O)(=O)Nc2ccc3nncn3n2)cc1
2. N#CCn1nc2n(CCC(=O)NC3CCCCC3)c(=O)c3ccccc3n2c1=O
3. COc1ccc(-c2cc3c4nn(CC(=O)Nc5ccc(C)cc5C)c(=O)n4ccn3n2)cc1
4. COc1ccccc1-n1ccn2c(SCC(=O)NCc3ccc(Cl)cc3)nnc2c1=O
5. CC(C)c1nnc2c(SCC(=O)N3CCN(c4ccccc4F)CC3)nc3ccccc3n12
6. Cc1ccc(-n2ccn3c(SCC(N)=O)nnc3c2=O)cc1C
7. Cc1cc(NC(=O)Cn2nc3ccc(SC(C)(C)C)nn3c2=O)ccc1Br

Result:
-3.84
1.45
-20.53
-6.31
-28.6
-10.4
-21.27

Hi there! I need Inhibition for each item below, if you can.
1. Cc1nnc2c(=O)n(CC(=O)NC3CCCC3)c3ccccc3n12
2. COc1cccc(CN(c2ccc(F)c(F)c2)S(=O)(=O)c2cccn3c(C)nnc23)c1
3. COc1cccc(C(=O)CSc2nnc3c(=O)n(-c4ccc(F)cc4)ccn23)c1

Result:
1. -17.78
2. -8.71
3. -4.94

Hi there! I need Inhibition for each item below, if you can.
1. CCOc1ccc(-n2ccn3c(SCC(=O)Nc4cccc(Cl)c4)nnc3c2=O)cc1
2. COc1ccc(-c2cc3c4nnc(CCC(=O)N5CCN(c6ccccc6F)CC5)n4ccn3n2)cc1
3. COc1cc(NC(=O)Cn2nc3c(N4CCCC4)nccn3c2=O)cc(OC)c1

Result:
-5.2
-8.32
-4.76

Task: Can you share its Inhibition? I mean this compound: O=C(Cn1nc2ccc(-c3ccc(Cl)cc3)nn2c1=O)NC1CCCC1
Result: -13.05
